Cited source for all entries: the supplement of paper PMC11061612

# Test system: TOV-21G (Ovarian Carcinoma)
# experiment_description: combination Emax (second highest fraction inhibited in the dose matrix, 72 h); higher = more inhibition; extreme values may be limits of the assay
Measured combination Emax, listed per entry for reference.

>  <compound>
CN(CCO)CC[C@H](CSc1ccccc1)Nc1ccc(S(=O)(=O)NC(=O)c2ccc(N3CCC([C@@H](O)c4ccccc4-c4ccc(Cl)cc4)CC3)cc2)cc1S(=O)(=O)C(F)(F)F [AZD4320] + C[C@@H](Nc1cc(F)cc(F)c1)c1cc(C(=O)N(C)C)cc2c(=O)cc(N3CCOCC3)oc12 [AZD8186] (first compound max 1 µM, 7x7, partner max 3 µM)

>  <combination Emax>
0.37

$$$$
>  <compound>
CCN(CCO)CCCOc1ccc2c(Nc3cc(CC(=O)Nc4cccc(F)c4)[nH]n3)ncnc2c1 [AZD2811] + C[C@@H]1COCCN1C2=NC(=NC(=C2)C3(CC3)[S@](=N)(=O)C)C4=C5C=CNC5=NC=C4 [AZD6738] (first compound max 1 µM, 7x7, partner max 10 µM)

>  <combination Emax>
0.56

$$$$

---

# Test system: NCI-H2009 (Lung Adenocarcinoma)
# experiment_description: combination Emax (second highest fraction inhibited in the dose matrix, 72 h); higher = more inhibition; extreme values may be limits of the assay

>  <molecule>
NC1(C(=O)N[C@@H](CCO)c2ccc(Cl)cc2)CCN(c2ncnc3[nH]ccc23)CC1 [Capivasertib] + CC(C)n1c(=O)n(C)c2cnc3cc(F)c(-c4ccc(OCCCN5CCCCC5)nc4)cc3c21 [AZD1390] (first compound max 10 µM, 7x7, partner max 0.3 µM)

>  <experimental_target>
NCI-H2009 (Lung Adenocarcinoma)

>  <combination Emax>
0.372

$$$$
>  <molecule>
Cc1c2c(nn1C)CSCc1cc(n(C)n1)CSc1cc(c3ccccc3c1)OCCCc1c(C(=O)O)n(C)c3c-2c(Cl)ccc13 [AZD5991] + Cc1cc2ncnn2cc1Nc1ncc2c(n1)n(C1CCOCC1)c(=O)n2C [AZD7648] (first compound max 1 µM, 7x7, partner max 10 µM)

>  <experimental_target>
NCI-H2009 (Lung Adenocarcinoma)

>  <combination Emax>
0.147

$$$$
>  <molecule>
Cc1c2c(nn1C)CSCc1cc(n(C)n1)CSc1cc(c3ccccc3c1)OCCCc1c(C(=O)O)n(C)c3c-2c(Cl)ccc13 [AZD5991] + CC1(C)CCC(CN2CCN(c3ccc(C(=O)NS(=O)(=O)c4ccc(NCC5CCOCC5)c([N+](=O)[O-])c4)c(Oc4cnc5[nH]ccc5c4)c3)CC2)=C(c2ccc(Cl)cc2)C1 [Venetoclax] (first compound max 1 µM, 7x7, partner max 1 µM)

>  <experimental_target>
NCI-H2009 (Lung Adenocarcinoma)

>  <combination Emax>
0.151

$$$$

---

# Test system: NCI-H2009 (Lung Adenocarcinoma)
# experiment_description: combination Emax (second highest fraction inhibited in the dose matrix, 72 h); higher = more inhibition; extreme values may be limits of the assay
Recorded combination Emax by entry
readout_label: combination Emax

>  <compound>
Cc1cc2ncnn2cc1Nc1ncc2c(n1)n(C1CCOCC1)c(=O)n2C [AZD7648] + O=C(c1cc(Cc2n[nH]c(=O)c3ccccc23)ccc1F)N1CCN(C(=O)C2CC2)CC1 [Olaparib] (first compound max 10 µM, 7x7, partner max 10 µM)

>  <result_number>
0.137

$$$$
>  <compound>
CN(CCO)CC[C@H](CSc1ccccc1)Nc1ccc(S(=O)(=O)NC(=O)c2ccc(N3CCC([C@@H](O)c4ccccc4-c4ccc(Cl)cc4)CC3)cc2)cc1S(=O)(=O)C(F)(F)F [AZD4320] + CS(=O)(=O)CCNCc1ccc(-c2ccc3ncnc(Nc4ccc(OCc5cccc(F)c5)c(Cl)c4)c3c2)o1 [Lapatinib] (first compound max 1 µM, 7x7, partner max 10 µM)

>  <result_number>
0.349

$$$$

---

# Test system: BC-1 (B-Cell Non-Hodgkin's Lymphoma);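 further: after 72 h of two-drug dosing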
# experiment_description: Bliss excess, mean over the matrix (fraction); higher = more synergy

>  <compound>
N#Cc1cnc(Nc2cc(NC[C@H]3CNCCO3)c(C(F)(F)F)cn2)cn1 [SRA737] + CCc1c2c(nc3ccc(O)cc13)-c1cc3c(c(=O)n1C2)COC(=O)[C@]3(O)CC [SN-38] (first compound max 10 µM, 7x7, partner max 0.3 µM)

>  <experimental_target>
BC-1 (B-Cell Non-Hodgkin's Lymphoma);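 further: after 72 h of two-drug dosing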

>  <Bliss excess>
-0.0242

$$$$
>  <compound>
Cc1c2c(nn1C)CSCc1cc(n(C)n1)CSc1cc(c3ccccc3c1)OCCCc1c(C(=O)O)n(C)c3c-2c(Cl)ccc13 [AZD5991] + CCN(CCO)CCCOc1ccc2c(Nc3cc(CC(=O)Nc4cccc(F)c4)[nH]n3)ncnc2c1 [AZD2811] (first compound max 1 µM, 7x7, partner max 1 µM)

>  <experimental_target>
BC-1 (B-Cell Non-Hodgkin's Lymphoma);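 further: after 72 h of two-drug dosing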

>  <Bliss excess>
0.0403

$$$$
>  <compound>
CC(=O)c1c(C)c2cnc(Nc3ccc(N4CCNCC4)cn3)nc2n(C2CCCC2)c1=O [Palbociclib] + Cc1c2c(nn1C)CSCc1cc(n(C)n1)CSc1cc(c3ccccc3c1)OCCCc1c(C(=O)O)n(C)c3c-2c(Cl)ccc13 [AZD5991] (first compound max 10 µM, 7x7, partner max 1 µM)

>  <experimental_target>
BC-1 (B-Cell Non-Hodgkin's Lymphoma);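 further: after 72 h of two-drug dosing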

>  <Bliss excess>
-0.0028

$$$$
>  <compound>
CCN(CCO)CCCOc1ccc2c(Nc3cc(CC(=O)Nc4cccc(F)c4)[nH]n3)ncnc2c1 [AZD2811] + C[C@@H]1COCCN1C2=NC(=NC(=C2)C3(CC3)[S@](=N)(=O)C)C4=C5C=CNC5=NC=C4 [AZD6738] (first compound max 1 µM, 7x7, partner max 10 µM)

>  <experimental_target>
BC-1 (B-Cell Non-Hodgkin's Lymphoma);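 further: after 72 h of two-drug dosing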

>  <Bliss excess>
-0.1

$$$$

---

# Test system: IGROV-1 (Ovarian Carcinoma)
# experiment_description: combination Emax (second highest fraction inhibited in the dose matrix, 72 h); higher = more inhibition; extreme values may be limits of the assay
// classify(record): look up combination Emax in ranges low band (below 0.7), middle band (0.7 to below 0.8), high band (0.8 or more)

>  <molecule>
Cc1cc2ncnn2cc1Nc1ncc2c(n1)n(C1CCOCC1)c(=O)n2C [AZD7648] + O=C(c1cc(Cc2n[nH]c(=O)c3ccccc23)ccc1F)N1CCN(C(=O)C2CC2)CC1 [Olaparib] (first compound max 10 µM, 7x7, partner max 10 µM)

>  <experimental_target>
IGROV-1 (Ovarian Carcinoma)

>  <qualitative_label>
low band

$$$$
>  <molecule>
C=CCn1c(=O)c2cnc(Nc3ccc(N4CCN(C)CC4)cc3)nc2n1-c1cccc(C(C)(C)O)n1 [AZD1775] + O=C(c1cc(Cc2n[nH]c(=O)c3ccccc23)ccc1F)N1CCN(C(=O)C2CC2)CC1 [Olaparib] (first compound max 1 µM, partner max 10 µM)

>  <experimental_target>
IGROV-1 (Ovarian Carcinoma)

>  <qualitative_label>
middle band

$$$$
>  <molecule>
Cc1c2c(nn1C)CSCc1cc(n(C)n1)CSc1cc(c3ccccc3c1)OCCCc1c(C(=O)O)n(C)c3c-2c(Cl)ccc13 [AZD5991] + Cn1cnc2c(F)c(Nc3ccc(Br)cc3Cl)c(C(=O)NOCCO)cc21 [Selumetinib] (first compound max 1 µM, 7x7, partner max 3 µM)

>  <experimental_target>
IGROV-1 (Ovarian Carcinoma)

>  <qualitative_label>
middle band

$$$$
>  <molecule>
CC1(C)CCC(CN2CCN(c3ccc(C(=O)NS(=O)(=O)c4ccc(NCC5CCOCC5)c([N+](=O)[O-])c4)c(Oc4cnc5[nH]ccc5c4)c3)CC2)=C(c2ccc(Cl)cc2)C1 [Venetoclax] + C[C@@H](Nc1cc(F)cc(F)c1)c1cc(C(=O)N(C)C)cc2c(=O)cc(N3CCOCC3)oc12 [AZD8186] (first compound max 1 µM, 7x7, partner max 3 µM)

>  <experimental_target>
IGROV-1 (Ovarian Carcinoma)

>  <qualitative_label>
low band

$$$$
>  <molecule>
Cc1c2c(nn1C)CSCc1cc(n(C)n1)CSc1cc(c3ccccc3c1)OCCCc1c(C(=O)O)n(C)c3c-2c(Cl)ccc13 [AZD5991] + CC1(C)CCC(CN2CCN(c3ccc(C(=O)NS(=O)(=O)c4ccc(NCC5CCOCC5)c([N+](=O)[O-])c4)c(Oc4cnc5[nH]ccc5c4)c3)CC2)=C(c2ccc(Cl)cc2)C1 [Venetoclax] (first compound max 1 µM, 7x7, partner max 1 µM)

>  <experimental_target>
IGROV-1 (Ovarian Carcinoma)

>  <qualitative_label>
low band

$$$$
>  <molecule>
COc1nnc2ccc(N3CCC(c4ccc(OCCN5CCN(C)C(=O)[C@H]5C)cc4)CC3)nn12 [AZD5153] + C=CCn1c(=O)c2cnc(Nc3ccc(N4CCN(C)CC4)cc3)nc2n1-c1cccc(C(C)(C)O)n1 [AZD1775] (first compound max 1 µM, partner max 1 µM)

>  <experimental_target>
IGROV-1 (Ovarian Carcinoma)

>  <qualitative_label>
high band

$$$$
>  <molecule>
Cc1nc(Nc2ncc(C(=O)Nc3c(C)cccc3Cl)s2)cc(N2CCN(CCO)CC2)n1 [Dasatinib] + CC(=O)Nc1cccc(-n2c(=O)n(C3CC3)c(=O)c3c(Nc4ccc(I)cc4F)n(C)c(=O)c(C)c32)c1 [Trametinib] (first compound max 2 µM, 7x7, partner max 1 µM)

>  <experimental_target>
IGROV-1 (Ovarian Carcinoma)

>  <qualitative_label>
high band

$$$$
>  <molecule>
Cn1cnc2c(F)c(Nc3ccc(Br)cc3Cl)c(C(=O)NOCCO)cc21 [Selumetinib] + CC(C)n1c(=O)n(C)c2cnc3cc(F)c(-c4ccc(OCCCN5CCCCC5)nc4)cc3c21 [AZD1390] (first compound max 10 µM, 7x7, partner max 0.3 µM)

>  <experimental_target>
IGROV-1 (Ovarian Carcinoma)

>  <qualitative_label>
low band

$$$$
>  <molecule>
COc1cccc(OCCCN)c1-c1cc(Nc2cnc(C#N)cn2)n[nH]1 [Prexasertib] + CCc1c2c(nc3ccc(O)cc13)-c1cc3c(c(=O)n1C2)COC(=O)[C@]3(O)CC [SN-38] (first compound max 1 µM, 7x7, partner max 0.3 µM)

>  <experimental_target>
IGROV-1 (Ovarian Carcinoma)

>  <qualitative_label>
high band

$$$$
>  <molecule>
CN(C)CCCOc1ccc(-c2ccc3ncc4c(c3c2)n(C2CCOCC2)c(=O)n4C)cn1 [AZD0156] + CCN(CCO)CCCOc1ccc2c(Nc3cc(CC(=O)Nc4cccc(F)c4)[nH]n3)ncnc2c1 [AZD2811] (first compound max 1 µM, 7x7, partner max 1 µM)

>  <experimental_target>
IGROV-1 (Ovarian Carcinoma)

>  <qualitative_label>
low band

$$$$
